- PROTOCOL_TEXT: Pharmacokinetics after intravenous and oral administration in rats
- Type: in vivo
- TEST_CONDITIONS: rat, plasma, iv dosing, dose 1 mg/kg
- Description: The compounds disclosed herein are assessed in pharmacokinetic studies in mice, rats, dogs or monkeys. The compounds are administered as a water solution, 2% HPMC+1% TWEEN®80 in water solution, 5% DMSO+5% solutol in saline, 4% MC suspension or capsule. For the intravenous administration, the animals are generally given at 0.5, 1 or 2 mg/kg dose. […] The plasma solutions are collected, and stored at −20° C. or −70° C. until analyzed by LC/MS/MS as described above.
ENDPOINT_LABEL: AUC(0-t) (ng·h/mL)
Please give a number only; it is taken to be in ng·h/mL.

Take a look at these entries with their results.
>>> print(df.to_string())
                                   molecule  endpoint_label  observed_value
0  CC(O)Cn1cc(Nc2ncc(Cl)c(NC3CC4CN(S(=O)(=O)CC5CC5)CC4C3)n2)cn1 (stereo not shown) [Ex. 46]        AUC(0-t)             277
1  Cn1cc(Nc2ncc(Cl)c(NC3CC4CN(c5ccc(C#N)nn5)CC4C3)n2)cn1 (stereo not shown) [Ex. 30]        AUC(0-t)            1140

Tell me the measured AUC(0-t) of CC(O)Cn1cc(Nc2ncc(Cl)c(NC3CC4CN(S(=O)(=O)C5CC5)CC4C3)n2)cn1 (stereo not shown) [Ex. 44] , please.
276

Tell me the measured AUC(0-t) of Cn1cc(Nc2ncc(Cl)c(NC3CC4CN(C(=O)CC5CC5)CC4C3)n2)cn1 (stereo not shown) [Ex. 12] , please.
278

Tell me the measured AUC(0-t) of CCNS(=O)(=O)N1CC2CC(Nc3nc(Nc4cnn(C)c4)ncc3Cl)CC2C1 (stereo not shown) [Ex. 24] , please.
231

Tell me the measured AUC(0-t) of Cn1cc(Nc2ncc(Cl)c(NC3CC4CN(S(=O)(=O)NC5CC5)CC4C3)n2)cn1 (stereo not shown) [Ex. 34] , please.
348

Tell me the measured AUC(0-t) of Cn1cc(Nc2ncc(Cl)c(NC3CCC4(CC3)CCN(C(=O)C3CC3)CC4)n2)cn1 [Ex. 22] , please.
746

Tell me the measured AUC(0-t) of Cn1cc(Nc2ncc(Cl)c(NC3CCC4(CC3)CCN(S(=O)(=O)C3CC3)CC4)n2)cn1 , please.
363

Tell me the measured AUC(0-t) of Cn1cc(Nc2ncc(Cl)c(NC3CC4CN(C(=O)NC5CC5)CC4C3)n2)cn1 (stereo not shown) [Ex. 19] , please.
263

Tell me the measured AUC(0-t) of Cn1cc(Nc2ncc(Cl)c(NC3CC4CN(S(=O)(=O)CC5CC5)CC4C3)n2)cn1 (stereo not shown) [Ex. 17] , please.
308

Tell me the measured AUC(0-t) of COc1ccc(-n2cc(Nc3ncc(Cl)c(NC4CC5CN(C(C)=O)CC5C4)n3)cn2)cn1 (stereo not shown) [Ex. 11] , please.
235

Tell me the measured AUC(0-t) of Cn1cc(Nc2ncc(Cl)c(NC3CC4CN(C(=O)Nc5ccccc5)CC4C3)n2)cn1 (stereo not shown) [Ex. 28] , please.
168

Tell me the measured AUC(0-t) of CCNS(=O)(=O)N1CC2CC(Nc3nc(Nc4cnn(CC(C)O)c4)ncc3Cl)CC2C1 (stereo not shown) [Ex. 45] , please.
267

Tell me the measured AUC(0-t) of CC(=O)N1CC2CC(Nc3nc(Nc4cnn(-c5ccccn5)c4)ncc3Cl)CC2C1 (stereo not shown) [Ex. 8] , please.
558
